TEST_SYSTEM: recombinant human PAI-1 (Homo sapiens, UniProt P05121)
Construct: purchased Molecular Innovations, Inc
Sequence (P05121 24-402): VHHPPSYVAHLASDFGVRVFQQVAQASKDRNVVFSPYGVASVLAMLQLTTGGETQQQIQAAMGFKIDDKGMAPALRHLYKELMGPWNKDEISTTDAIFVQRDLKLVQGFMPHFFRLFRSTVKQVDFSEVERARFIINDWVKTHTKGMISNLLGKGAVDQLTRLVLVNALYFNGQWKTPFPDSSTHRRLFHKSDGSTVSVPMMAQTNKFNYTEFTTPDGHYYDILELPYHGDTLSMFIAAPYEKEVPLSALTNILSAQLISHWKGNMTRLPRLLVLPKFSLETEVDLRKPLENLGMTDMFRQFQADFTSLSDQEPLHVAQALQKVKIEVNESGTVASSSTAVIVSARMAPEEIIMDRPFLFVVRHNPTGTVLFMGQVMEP
EXPERIMENT_DESCRIPTION: Test Example 1: human PAI-1 inhibitory activity (tPA fluorogenic substrate, pH 7.5 Tris buffer)
Type: biochemical
RUN_CONDITIONS: Compound Concentration 10 μM; Tris buffer
A collection of molecules and their measured Inhibition Rate of PAI-1 Activity (%)
Kindly provide the numeric value in % only, without the unit symbol.

Examples from the recorded data:
{"columns": ["MOLECULE", "UNIT", "RECORDED_NUMBER"],
 "data": [
  ["CCCOc1ccc(N(Cc2ccccc2)C(=O)C(=O)O)cc1-c1ccc(OC(F)(F)F)cc1 [Compound 210]", "%", 70],
  ["CC(C)(C)c1ccc(COc2ccc(-c3ccccc3OC(F)(F)F)cc2/C=C/C(=O)O)cc1 [Compound 65]", "%", 72],
  ["CC(C)(C)c1ccc(CN(C(=O)C(=O)O)c2ccc(C(F)(F)F)cc2-c2ccc(OC(F)(F)F)cc2)cc1 [Compound 169]", "%", 91],
  ["COc1ccccc1-c1ccc(OCc2ccc(C(C)(C)C)cc2)c(/C=C/C(=O)O)c1 [Compound 55]", "%", 46],
  ["CC(C)(C)c1ccc(CN(C(=O)C(=O)O)c2ccc(-c3ccccc3OC(F)(F)F)cc2)cc1 [Compound 201]", "%", 89],
  ["O=C(O)C(=O)N(Cc1c(Cl)cccc1Cl)c1ccc(-c2ccc(OC(F)(F)F)cc2)cc1 [Compound 171]", "%", 44],
  ["CCC(Oc1ccc(-c2ccc(OC(F)(F)F)cc2)cc1Oc1ccc(C(C)(C)C)cc1)C(=O)O (centres unmarked) [Compound 114]", "%", 87]
]}

We now examine a further molecule.
Give the reported Inhibition Rate of PAI-1 Activity (%) for CC(C)(C)c1ccc(COc2ccc(-c3ccc(F)cc3)cc2/C=C/C(=O)O)cc1 [Compound 33] (system: recombinant human PAI-1 (Homo sapiens, UniProt P05121)).
53

====

TEST_SYSTEM: recombinant human PAI-1 (Homo sapiens)
Construct: purchased Molecular Innovations, Inc
EXPERIMENT_DESCRIPTION: Test Example 2: human PAI-1 inhibitory activity (tPA fluorogenic substrate, pH 7.4 HEPES buffer)
Type: biochemical
RUN_CONDITIONS: human PAI-1; compound concentration 0.3 μM
QUANTITY_MEASURED: Inhibition Rate of PAI-1 Activity (%)
Kindly provide the numeric value in % only, without the unit symbol.

Examples from the recorded data:
{"columns": ["CHEMICAL_SMILES", "Inhibition Rate of PAI-1 Activity (%)"],
 "data": [
  ["CCCCCCCCOc1ccc(-c2ccc(OC(F)(F)F)cc2)cc1N(CCCCc1ccccc1)C(=O)C(=O)O", 95],
  ["CC(C)(C)c1ccc(COc2ccc(-c3ccc(OC(F)(F)F)cc3)cc2C(=O)O)cc1", 3],
  ["CC(C)(C)c1ccc(Oc2cc(-c3ccc(OC(F)(F)F)cc3)ccc2C(=O)O)cc1", 8]
]}

We now examine a further compound.
Would you mind telling me what Inhibition Rate of PAI-1 Activity (%) value was observed for "CC(C)(C)c1cccc(Oc2cc(-c3cccc(OC(F)(F)F)c3)ccc2CCC(=O)O)c1" ?
16

====

TEST_SYSTEM: recombinant human PAI-1 (Homo sapiens, UniProt P05121)
Construct: purchased Molecular Innovations, Inc
EXPERIMENT_DESCRIPTION: Test Example 2: human PAI-1 inhibitory activity (tPA fluorogenic substrate, pH 7.4 HEPES buffer)
Assay type: biochemical
RUN_CONDITIONS: Compound Concentration 3 μM; HEPES buffer
QUANTITY_MEASURED: Inhibition Rate of PAI-1 Activity (%)
Kindly provide the numeric value in % only, without the unit symbol.

Examples from the recorded data:
{"columns": ["CHEMICAL_SMILES", "Inhibition Rate of PAI-1 Activity (%)"],
 "data": [
  ["CC(C)Oc1ccc(N(Cc2ccc(C(C)(C)C)cc2)C(=O)C(=O)O)cc1-c1ccc(OC(F)(F)F)cc1", 96],
  ["CC(C)(C)c1ccc(CN(C(=O)C(=O)O)c2ccc(OCc3ccccc3)c(-c3ccc(OC(F)(F)F)cc3)c2)cc1", 98],
  ["Cc1cc(N(C)C)c(-c2ccc(OC(F)(F)F)cc2)cc1N(Cc1ccc(C(C)(C)C)cc1)C(=O)C(=O)O", 95],
  ["CCN(CC)c1ccc(N(Cc2ccc(C(C)(C)C)cc2)C(=O)C(=O)O)cc1-c1ccc(OC(F)(F)F)cc1", 98],
  ["CCCCc1ccc(COc2ccc(-c3ccc(OC(F)(F)F)cc3)cc2CCC(=O)O)cc1", 92]
]}

Would you mind telling me what Inhibition Rate of PAI-1 Activity (%) value was observed for "CN(C)c1ccc(N(Cc2ccc(C(C)(C)C)cc2)C(=O)C(=O)O)cc1-c1ccc(OC(F)(F)F)cc1" ?
96

====

TEST_SYSTEM: recombinant human PAI-1 (Homo sapiens)
Construct: purchased Molecular Innovations, Inc
EXPERIMENT_DESCRIPTION: Test Example 1: human PAI-1 inhibitory activity (tPA fluorogenic substrate, pH 7.5 Tris buffer)
Format: biochemical
RUN_CONDITIONS: Compound Concentration 10 μM; Tris buffer
Give true (1) when the value for Inhibition Rate of PAI-1 Activity (%) is at least 80%. Give false (0) when it is less.

{"columns": ["COMPOUND", "CLASS_NAME"],
 "data": [
  ["CC(C)c1ccc(Oc2ccc(/C=C/C(=O)O)c(Oc3ccc(C(C)C)cc3)c2)cc1 [Compound 72]", "false (0)"],
  ["Cc1ccc(COc2ccc(-c3ccc(OC(F)(F)F)cc3)cc2CCC(=O)O)cc1 [Compound 61]", "false (0)"],
  ["O=C(O)C(=O)N(Cc1ccc(Cl)cc1Cl)c1ccc(-c2ccc(OC(F)(F)F)cc2)cc1 [Compound 144]", "false (0)"]
]}

Exam item: decide whether the reported Inhibition Rate of PAI-1 Activity (%) for CC(C)(C)c1ccc(COc2cc(-c3ccc(OC(F)(F)F)cc3)ccc2/C=C/C(=O)O)cc1 [Compound 75] is at least 80%.
false (0)

Moving on to the next compound: COc1ccccc1-c1ccc(OCc2ccc(C(C)(C)C)cc2)c(CCC(=O)O)c1 [Compound 56]
false (0)

Moving on to the next compound: CC(C)(C)c1ccc(CN(C(=O)C(=O)O)c2ccc(Sc3ccc(OC(F)(F)F)cc3)cc2)cc1 [Compound 621]
true (1)

====

A collection of compounds and their measured Inhibition Rate of PAI-1 Activity (%)
TEST_SYSTEM: recombinant human PAI-1 (Homo sapiens, UniProt P05121)
Construct: purchased Molecular Innovations, Inc
EXPERIMENT_DESCRIPTION: Test Example 1: human PAI-1 inhibitory activity (tPA fluorogenic substrate, pH 7.5 Tris buffer)
Type: biochemical
RUN_CONDITIONS: Compound Concentration 5 μM; Tris buffer
Kindly provide the numeric value in % only, without the unit symbol.

Examples from the recorded data:
{"columns": ["CHEMICAL_SMILES", "TEST_SYSTEM", "Inhibition Rate of PAI-1 Activity (%)"],
 "data": [
  ["CC(C)(C)c1ccc(CN(C(=O)CCC(=O)O)c2ccc(-c3ccc(OC(F)(F)F)cc3)cc2)cc1", "recombinant human PAI-1 (Homo sapiens, UniProt P05121)", 38],
  ["CC(C)(C)c1ccc(N(C(=O)C(=O)O)c2ccc(Oc3ccc(OC(F)(F)F)cc3)cc2)cc1", "recombinant human PAI-1 (Homo sapiens, UniProt P05121)", 27],
  ["CC(C)(C)c1ccc(COc2ccc(Oc3ccc(OC(F)(F)F)cc3)cc2C=CC(=O)O)cc1", "recombinant human PAI-1 (Homo sapiens, UniProt P05121)", 28],
  ["Cc1cc(-c2ccc(OC(F)(F)F)cc2)ccc1N(Cc1ccc(C(C)(C)C)cc1)C(=O)C(=O)O", "recombinant human PAI-1 (Homo sapiens, UniProt P05121)", 33]
]}

Would you mind telling me what Inhibition Rate of PAI-1 Activity (%) value was observed for "CCCCCOc1ccc(N(CCCCc2ccccc2)C(=O)C(=O)O)cc1-c1ccc(OC(F)(F)F)cc1" ?
71

Moving on to the next compound: "CC(C)(C)c1ccc(COc2ccc(-c3ccc(OC(F)(F)F)cc3)cc2/C=C/C(=O)O)cc1"
96

Moving on to the next compound: "COc1ccc(COc2ccc(-c3ccc(OC(F)(F)F)cc3)cc2CCC(=O)O)cc1"
15

====

TEST_SYSTEM: recombinant human PAI-1 (Homo sapiens)
Construct: purchased Molecular Innovations, Inc
EXPERIMENT_DESCRIPTION: Test Example 1: human PAI-1 inhibitory activity (tPA fluorogenic substrate, pH 7.5 Tris buffer)
Format: biochemical
RUN_CONDITIONS: Compound Concentration 25 μM; Tris buffer
Give condition met when the value for Inhibition Rate of PAI-1 Activity (%) is at least 70%. Give condition not met when it is less.

As a guide, the following entries are already answered.
{"columns": ["CHEMICAL_SMILES", "CLASS_NAME"],
 "data": [
  ["CSc1ccc(-c2ccc(OCc3ccc(C(C)(C)C)cc3)c(/C=C/C(=O)O)c2)cc1", "condition not met"],
  ["O=C(O)CCc1cc(-c2ccccc2)ccc1OCc1ccc(OC(F)(F)F)cc1", "condition met"],
  ["CC(C)(C)c1ccc(-c2ccc(N(Cc3cccc(OC(F)(F)F)c3)C(=O)C(=O)O)cc2)cc1", "condition met"]
]}

Exam item: decide whether the reported Inhibition Rate of PAI-1 Activity (%) for "CC(C)(C)c1ccc(-c2ccc(OCc3cccc(OC(F)(F)F)c3)c(CCC(=O)O)c2)cc1" is at least 70%.
condition met

Moving on to the next molecule: "O=C(O)C(=O)N(Cc1ccc(F)cc1)c1ccc(-c2ccc(OC(F)(F)F)cc2)cc1"
condition not met

Moving on to the next molecule: "O=C(O)CCc1cc(-c2ccc(OC(F)(F)F)cc2)ccc1OCc1ccc(F)cc1"
condition not met

Moving on to the next molecule: "Cc1cc(N(Cc2ccc(C(C)(C)C)cc2)C(=O)C(=O)O)ccc1-c1ccc(OC(F)(F)F)cc1"
condition met

Moving on to the next molecule: "O=C(O)C(=O)N(Cc1ccc(OC(F)(F)F)cc1)c1ccc(-c2ccccc2)cc1"
condition not met

From: patent US8633245B2
